Data provenance: patent US7816520B2

# procedure.text: Spectral characteristics: molar extinction coefficient and specific absorbance (UV spectrophotometry in ethyl acetate)
# Format: physicochemical
# experimental.conditions: the 'at ...' part of the cell, 10 μg/ml
measurement.name: Wavelength of maximum specific absorbance UVB

Guide cases for Wavelength of maximum specific absorbance UVB, answers given:
[
  {
    "molecule": "Oc1ccc(-c2nnc(-c3ccc(-c4nnc(-c5ccc(O)cc5)c(-c5ccc(O)cc5)n4)cc3)nc2-c2ccc(O)cc2)cc1 [WP35]",
    "meas.value": "at 310 nm"
  },
  {
    "molecule": "CC(C)(C)c1ccc(-c2nnc(-c3ccc(-c4nnc(-c5ccc(C(C)(C)C)cc5)c(-c5ccc(C(C)(C)C)cc5)n4)cc3)nc2-c2ccc(C(C)(C)C)cc2)cc1 [WP104]",
    "meas.value": "at 300 nm"
  },
  {
    "molecule": "CCCCCCCCCCCCc1ccc(-c2nnc(-c3ccc(-c4nnc(-c5ccc(CCCCCCCCCCCC)cc5)c(-c5ccc(CCCCCCCCCCCC)cc5)n4)cc3)nc2-c2ccc(CCCCCCCCCCCC)cc2)cc1 [WP107]",
    "meas.value": "at 300 nm"
  },
  {
    "molecule": "CCCCC(CC)COc1ccc(-c2nc(-c3ccc(OC)cc3)nc(-c3ccc(OCC(CC)CCCC)cc3O)n2)c(O)c1 (stereo not shown) [Tinosorb S ®, reference compound]",
    "meas.value": "at 310 nm"
  }
]

Next item in the queue.
Q. Reported Wavelength of maximum specific absorbance UVB for CCCCC(CC)COC(=O)C=Cc1ccc(OC)cc1 (stereo not shown) [Parsol MCX ®, reference compound] : what is it?
A. at 310 nm
